system: KG-1; test: cell viability (% survival relative to DMSO control, bortezomib = 0%); higher = less cytotoxic; conditions: 10 nM; 72 h
propertyLabel: cell viability (%)

1. NCCCC(N)(C(=O)O)C(F)F (centres undefined) = 88.8
2. CC(C)(C#N)c1cc(Cn2cncn2)cc(C(C)(C)C#N)c1 = 97.2
3. O=C(O)C[C@@]1(O)C[C@@H](CCCCCCc2ccc(Cl)cc2Cl)OC1=O = 110
4. CC[C@@]1(O)C(=O)OCc2c1cc1n(c2=O)Cc2cc3c(CN(C)C)c(O)ccc3nc2-1 = 91.2
5. N#CC(C#N)=NNc1ccc(OC(F)(F)F)cc1 = 101
6. COc1ccc2c(C(=S)N(C)CC(=O)O)cccc2c1C(F)(F)F = 95.3
7. COc1ccc(-c2ccccc2)cc1NS(=O)(=O)c1cc(Cl)cc(Cl)c1O = 96.4
8. CCOC(=O)c1ccc(-c2ccc(OC(=O)N(C)Cc3cccc(-c4ccncc4)c3)cc2)cc1 = 93.4
9. CN(C)C(=O)[C@H](O)[C@H](Cc1ccccc1)NC(=O)c1cc2cc(Cl)ccc2[nH]1 = 93.9
